The reported numbers originate from ChEMBL document CHEMBL3779781.

Test system: Mycobacterium tuberculosis
Assay: Antimycobacterial activity against Mycobacterium tuberculosis H37Rv ATCC 25618 after 2 weeks
Format: functional
Details: H37Rv ATCC 25618, 336 h
OUTCOME_MEASURE: log10 MIC (log10 of the value in µM)
The figures below represent log10 of MIC, where MIC is stated in µM.

Value of measured log10 MIC for the entry O=C(NCC1(c2nc(-c3ccccc3)cs2)CCOCC1)c1ccc(-n2cncn2)cc1 : 2.10

Others:
Value of measured log10 MIC for the entry Cc1cc(C)n(-c2ccc(C(=O)NCC3(c4nc(-c5ccccc5)cs4)CCOCC3)cc2)n1 : 1.90

Value of measured log10 MIC for the entry Cc1cc(C)n(Cc2ccc(C(=O)NCC3(c4nc(-c5ccccc5)cs4)CCOCC3)cc2)n1 : 1.07

Value of measured log10 MIC for the entry Cc1cc(C)n(Cc2ccc(C(=O)NCC3(c4ccc5c(c4)OCO5)CCOCC3)cc2)n1 : 2.10

Value of measured log10 MIC for the entry Cn1c(Nc2ccc(C(=O)NCC3(c4nc(-c5ccccc5)cs4)CCOCC3)cc2)nc2ccccc21 : 1.97

Value of measured log10 MIC for the entry Cc1cc(C)n(Cc2ccc(C(=O)NCC3(c4ccc(-c5ccccc5)cc4)CCOCC3)cc2)n1 : 1.20

* * *

Molecular target: Voltage-gated inwardly rectifying potassium channel KCNH2 (Homo sapiens)
Sequence (Q12809 whole entry): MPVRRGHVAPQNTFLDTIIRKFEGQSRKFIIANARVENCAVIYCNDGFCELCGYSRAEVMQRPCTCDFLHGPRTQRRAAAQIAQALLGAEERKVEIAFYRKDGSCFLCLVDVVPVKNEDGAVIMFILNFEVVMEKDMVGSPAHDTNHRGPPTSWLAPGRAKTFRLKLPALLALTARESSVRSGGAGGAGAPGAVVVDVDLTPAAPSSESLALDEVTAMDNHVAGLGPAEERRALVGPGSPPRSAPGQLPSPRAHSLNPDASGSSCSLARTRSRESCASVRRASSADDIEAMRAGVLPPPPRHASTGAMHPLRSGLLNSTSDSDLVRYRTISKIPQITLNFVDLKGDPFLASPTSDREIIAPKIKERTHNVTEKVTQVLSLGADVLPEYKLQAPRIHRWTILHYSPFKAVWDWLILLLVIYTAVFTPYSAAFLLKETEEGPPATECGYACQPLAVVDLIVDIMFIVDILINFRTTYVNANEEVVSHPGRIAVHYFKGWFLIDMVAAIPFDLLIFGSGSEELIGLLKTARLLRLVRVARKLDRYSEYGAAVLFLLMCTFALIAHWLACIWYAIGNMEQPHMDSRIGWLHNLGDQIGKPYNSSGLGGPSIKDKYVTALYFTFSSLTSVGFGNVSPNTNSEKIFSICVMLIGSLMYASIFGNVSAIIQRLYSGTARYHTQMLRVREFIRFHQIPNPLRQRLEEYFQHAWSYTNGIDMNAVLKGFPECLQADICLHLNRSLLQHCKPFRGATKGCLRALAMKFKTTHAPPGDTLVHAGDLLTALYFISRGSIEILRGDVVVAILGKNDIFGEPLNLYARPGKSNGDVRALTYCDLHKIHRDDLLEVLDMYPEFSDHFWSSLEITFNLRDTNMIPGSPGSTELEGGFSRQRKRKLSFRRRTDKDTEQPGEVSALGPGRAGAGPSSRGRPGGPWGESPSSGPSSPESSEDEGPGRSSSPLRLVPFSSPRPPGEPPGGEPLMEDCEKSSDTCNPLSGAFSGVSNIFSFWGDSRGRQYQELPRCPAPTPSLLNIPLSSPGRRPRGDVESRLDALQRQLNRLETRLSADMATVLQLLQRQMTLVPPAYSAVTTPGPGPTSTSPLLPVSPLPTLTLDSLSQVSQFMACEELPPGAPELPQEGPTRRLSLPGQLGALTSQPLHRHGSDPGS
Assay: Inhibition of human ERG by QPatch assay
OUTCOME_MEASURE: pIC50
Here pIC50 is given on a logarithmic scale as minus log10 of the concentration in mol/L.

Value of measured pIC50 for the entry Cc1cc(C)n(Cc2ccc(C(=O)NCC3(c4nc(-c5ccccc5)cs4)CCOCC3)cc2)n1 : 4.35

* * *

Test system: Mycobacterium tuberculosis
Experiment: Antimycobacterial activity against Mycobacterium tuberculosis H37Rv ATCC 25618 after 2 weeks
Type: functional
Details: H37Rv ATCC 25618, 336 h
OUTCOME_MEASURE: MIC

Previously resolved entries follow.
Readout MIC for Cn1ccc(Nc2ccc(C(=O)NCC3(c4nc(-c5ccccc5)cs4)CCOCC3)cc2)n1 , test system Mycobacterium tuberculosis, was > 125 µM

Readout MIC for COc1ccccc1-c1csc(C2(CNC(=O)c3ccc(Cn4nc(C)cc4C)cc3)CCOCC2)n1 , test system Mycobacterium tuberculosis, was 5 µM

Readout MIC for O=C(NCC1(c2nc(-c3ccccc3)cs2)CCOCC1)c1ccc(CN2CCCCC2)cc1 , test system Mycobacterium tuberculosis, was > 125 µM

Readout MIC for COc1cccc(-c2csc(C3(CNC(=O)c4ccc(Cn5nc(C)cc5C)cc4)CCOCC3)n2)c1 , test system Mycobacterium tuberculosis, was 20 µM

Next:
Readout MIC for O=C(NCC1(c2nc(-c3ccccc3)cs2)CCOCC1)c1ccc(-c2cnco2)cc1 , test system Mycobacterium tuberculosis, was 125 µM

* * *

Assay: Kinetic solubility of compound in DMSO/phosphate buffered saline at pH7.4 by chemiluminescent nitrogen detection method
Format: physicochemical
Conditions: pH 7.4, read-out: Kinetic_solubility
Threshold rule: solubility kinetic greater than or equal to 50 µM is Condition met; below that, Condition not met.

Task item: Does the reported solubility kinetic for Cc1cc(C)n(Cc2ccc(C(=O)NCC3(c4ccc5c(c4)OCO5)CCOCC3)cc2)n1 fall at or above the 50 µM mark?
Reply: Condition met

Task item: Does the reported solubility kinetic for Cc1cc(C)n(Cc2ccc(C(=O)NCC3(c4ccccn4)CCOCC3)cc2)n1 fall at or above the 50 µM mark?
Reply: Condition met

Task item: Does the reported solubility kinetic for Cc1cc(C)n(-c2ccc(C(=O)NCC3(c4nc(-c5ccccc5)cs4)CCOCC3)cc2)n1 fall at or above the 50 µM mark?
Reply: Condition not met

Others:
Task item: Does the reported solubility kinetic for COc1ccc(C2(CNC(=O)c3ccc(Cn4nc(C)cc4C)cc3)CCOCC2)cc1 fall at or above the 50 µM mark?
Reply: Condition met

Task item: Does the reported solubility kinetic for O=C(NCC1(c2nc(-c3ccccc3)cs2)CCOCC1)c1ccc(-n2ccnc2)cc1 fall at or above the 50 µM mark?
Reply: Condition met

Task item: Does the reported solubility kinetic for O=C(NCC1(c2nc(-c3ccccc3)cs2)CCOCC1)c1ccc(Nc2nncs2)cc1 fall at or above the 50 µM mark?
Reply: Condition not met

Task item: Does the reported solubility kinetic for O=C(NCC1(c2nc(-c3ccccc3)cs2)CCOCC1)c1ccc(-c2cnco2)cc1 fall at or above the 50 µM mark?
Reply: Condition met

Task item: Does the reported solubility kinetic for Cn1ccc(Nc2ccc(C(=O)NCC3(c4nc(-c5ccccc5)cs4)CCOCC3)cc2)n1 fall at or above the 50 µM mark?
Reply: Condition not met

Task item: Does the reported solubility kinetic for Cc1cnc(Nc2ccc(C(=O)NCC3(c4nc(-c5ccccc5)cs4)CCOCC3)cc2)s1 fall at or above the 50 µM mark?
Reply: Condition not met

Task item: Does the reported solubility kinetic for O=C(NCC1(c2nc(-c3ccccc3)cs2)CCOCC1)c1ccc(Nc2nc3ccccc3s2)cc1 fall at or above the 50 µM mark?
Reply: Condition not met

Task item: Does the reported solubility kinetic for O=C(NCC1(c2nc(-c3ccccc3)cs2)CCOCC1)c1ccc(CN2CCCCC2)cc1 fall at or above the 50 µM mark?
Reply: Condition met

Task item: Does the reported solubility kinetic for O=C(NCC1(c2nc(-c3ccccc3)cs2)CCOCC1)c1ccc(-n2cncn2)cc1 fall at or above the 50 µM mark?
Reply: Condition met

* * *

Tested on: Mycobacterium tuberculosis
Assay: Antimycobacterial activity against Mycobacterium tuberculosis H37Rv ATCC 25618 after 2 weeks
Assay type: functional
Details: H37Rv ATCC 25618, 336 h
OUTCOME_MEASURE: MIC

Value of measured MIC for the entry O=C(NCC1(c2nc(-c3ccccc3)cs2)CCOCC1)c1ccc(Nc2nncs2)cc1 : > 125 µM

Value of measured MIC for the entry Cc1cnc(Nc2ccc(C(=O)NCC3(c4nc(-c5ccccc5)cs4)CCOCC3)cc2)s1 : > 80 µM

Value of measured MIC for the entry O=C(NCC1(c2nc(-c3ccccc3)cs2)CCOCC1)c1ccc(-n2ccnc2)cc1 : > 125 µM

Value of measured MIC for the entry COc1ccc(C2(CNC(=O)c3ccc(Cn4nc(C)cc4C)cc3)CCOCC2)cc1 : > 125 µM

Value of measured MIC for the entry O=C(NCC1(c2nc(-c3ccccc3)cs2)CCOCC1)c1ccc(N2CCOCC2)cc1 : > 125 µM

Value of measured MIC for the entry O=C(NCC1(c2nc(-c3ccccc3)cs2)CCOCC1)c1ccc(Nc2nc3ccccc3s2)cc1 : > 125 µM

Value of measured MIC for the entry O=C(NCC1(c2nc(-c3ccccc3)cs2)CCOCC1)c1ccc(Nc2ccccn2)cc1 : > 80 µM

Value of measured MIC for the entry Cc1cc(C)n(Cc2ccc(C(=O)NCC3(c4ccccn4)CCOCC3)cc2)n1 : > 125 µM
